From: patent US6541672B1

test system: carragenin rat paw edema; assay: Anti inflammatory activity test (Winter, 1962), carragenin rat paw edema; type: in vivo, Wistar rats; details: peroral in CMC 1%, inhibition of rat paw edema volume, doses 10-80 mg/kg bw
Reported ED 50 values for the following compounds.
The reply must contain the numeric value and, after it, the unit.

Guide cases for ED 50, answers given:
[[record]]
smiles_structure = "O=C1C(=Cc2cc(Cl)c(O)c(Cl)c2)CCCC1=Cc1cc(Cl)c(O)c(Cl)c1"
quantity_measured = "ED 50"
observed_result = "25 mg/kg.bb"

[[record]]
smiles_structure = "O=C1C(=Cc2cc(Cl)c(O)c(Cl)c2)CCC1=Cc1cc(Cl)c(O)c(Cl)c1"
quantity_measured = "ED 50"
observed_result = "20 mg/kg.bb"


**Q:** Tell us which ED 50 value is on record for COc1cc(/C=C2/CC/C(=C/c3cc(OC)c(O)c(OC)c3)C2=O)cc(OC)c1O
**A:** 48 mg/kg.bb

**Q:** Tell us which ED 50 value is on record for Cc1cc(/C=C2\CC/C(=C\c3cc(C)c(O)c(C)c3)C2=O)cc(C)c1O
**A:** 86 mg/kg.bb

**Q:** Tell us which ED 50 value is on record for CCc1cc(/C=C2\CC/C(=C\c3cc(CC)c(O)c(CC)c3)C2=O)cc(CC)c1O
**A:** 80 mg/kg.bb

**Q:** Tell us which ED 50 value is on record for CCc1cc(C=C2CCCC(=Cc3cc(CC)c(O)c(CC)c3)C2=O)cc(CC)c1O
**A:** 20 mg/kg.bb

**Q:** Tell us which ED 50 value is on record for COc1cc(/C=C2/CCC/C(=C/c3cc(OC)c(O)c(OC)c3)C2=O)cc(OC)c1O
**A:** 222 mg/kg.bb
